Hey, just so you know, these numbers are from PubChem BioAssay (NCI).

System: UACC-257 melanoma
Measurement Protocol: NCI tumour cell line growth inhibition, 48 h
Readout Name: GI50

In: Tell me reported GI50 for Cc1cc(Nc2nc(N3CCOCC3)nc3ccccc23)n[nH]1 , tested with UACC-257 melanoma.
Out: 87.7 µM

In: Tell me reported GI50 for CN1CCN(Cc2ccc(NC(=O)c3[nH]ncc3Nc3ccnc4ccsc34)cc2)CC1 , tested with UACC-257 melanoma.
Out: 11.6 µM

In: Tell me reported GI50 for O=C(Nc1cccc(-c2nc3ccccc3[nH]2)c1)c1cccc(NC(=O)c2ccco2)c1 , tested with UACC-257 melanoma.
Out: 2.3 µM

---

Please respond with reported TGI for every item in the list.
Tested on: NCI-H460 lung
Measurement Protocol: NCI tumour cell line growth inhibition, 48 h

In: # input molecule: NC(=S)Nc1nnc(-c2ccc(-c3nnc(NC(N)=S)o3)cc2)o1 ; wanted: its TGI
Out: > 100 µM

In: # input molecule: O=C1CCC(NC(=O)Cc2ccc(O)cc2)C(=O)N1 (stereo unspecified) ; wanted: its TGI
Out: > 2500 µM

In: # input molecule: Cc1ccc(C2=NN(C)COC2C(F)(F)F)cc1 (stereo unspecified) ; wanted: its TGI
Out: > 100 µM

In: # input molecule: Cc1ccc2nc(CN3CCCCC3)cc(=O)n2c1 ; wanted: its TGI
Out: > 100 µM

In: # input molecule: CO/C=C/c1cc2c(cc1C(OC)OC)OCO2 ; wanted: its TGI
Out: > 100 µM

In: # input molecule: O=S(=O)([N-]c1nc2ccccc2nc1-[n+]1ccccc1)c1ccccc1 ; wanted: its TGI
Out: > 100 µM

---

Tested on: UO-31 renal
Measurement Protocol: NCI tumour cell line growth inhibition, 48 h
Readout Name: TGI

In: # input compound: COc1ccc(C(=O)O)c2c(=O)c3ccccc3[nH]c12 ; wanted: its TGI
Out: > 100 µM

In: # input compound: COc1cc(/C=C2\C[C@H]3[C@@H]4CC=C5C[C@@H](OC(C)=O)CC[C@]5(C)[C@H]4CC[C@]3(C)[C@H]2OC(C)=O)ccc1OCCCn1ccnc1 ; wanted: its TGI
Out: > 34 µM

In: # input compound: Cc1cccc(NC(=O)CSc2nnc(Cc3ccccc3)o2)c1 ; wanted: its TGI
Out: > 100 µM

In: # input compound: OCC1OC(O)C(N=Cc2ccc3c(c2)OCO3)C(O)C1O (stereo unspecified) ; wanted: its TGI
Out: > 100 µM

In: # input compound: C=CCOCCCC(=O)C(=[N+]=[N-])C(=O)OC ; wanted: its TGI
Out: > 100 µM

In: # input compound: O=c1[nH]cnc2c1nnn2[C@@H]1O[C@H](CO)[C@@H](O)[C@H]1O ; wanted: its TGI
Out: > 100 µM

---

Tested on: SN12C renal
Measurement Protocol: NCI tumour cell line growth inhibition, 48 h
Please respond with reported TGI for every item in the list.
Number in µM, nothing else.

In: Tell me reported TGI for Cc1cc2c(cc1C)[n+](=O)c(C(=O)c1cccs1)c(C(F)(F)F)n2[O-] , tested with SN12C renal.
Out: 6.59

In: Tell me reported TGI for CC(=O)Oc1cc2c(=O)oc3c(OC(C)=O)c(OC(C)=O)c(OC(C)=O)c4c(=O)oc(c1OC(C)=O)c2c34 , tested with SN12C renal.
Out: 61.1

In: Tell me reported TGI for O=C1CC(N2C(=O)/C(=C/C(Cl)=C\c3ccc([N+](=O)[O-])cc3)SC2=S)C(=O)N1c1ccc(Cl)cc1 (stereo not given) , tested with SN12C renal.
Out: 11.1
